// Lyn kinase (Homo sapiens, UniProt P07948) pIC50 records
pIC50: −log10 of the molar value.
property-label: pIC50

(1) Cc1ccccc1NC(=O)c1cccc2[nH]c(-c3n[nH]c4ncc(-c5cncc6ccccc56)cc34)nc12 [Cpd 46]
(2) COc1ccc2nc(-c3n[nH]c4ncc(-c5cccnc5)cc34)[nH]c2c1 [Cpd 90]
Please tell me which of the two, 1 or 2 , has the higher reported pIC50 value. Kindly state the label of the option you pick.
1

(I) COCc1cccc2[nH]c(-c3n[nH]c4ncc(-c5ccc(N6CCNCC6)nc5)cc34)nc12 [Cpd 69]
(II) COCc1cccc2[nH]c(-c3n[nH]c4ncc(-c5cncc(CNC(C)C)c5)cc34)nc12 [Cpd 43]
When their pIC50 values are compared, which is larger, I or II ? # respond with the chosen item's label
II
(II: 6.88, I: 5.54)

###

target: VEGF-R2 (Rattus norvegicus)
Sequence (O08775 786-1343): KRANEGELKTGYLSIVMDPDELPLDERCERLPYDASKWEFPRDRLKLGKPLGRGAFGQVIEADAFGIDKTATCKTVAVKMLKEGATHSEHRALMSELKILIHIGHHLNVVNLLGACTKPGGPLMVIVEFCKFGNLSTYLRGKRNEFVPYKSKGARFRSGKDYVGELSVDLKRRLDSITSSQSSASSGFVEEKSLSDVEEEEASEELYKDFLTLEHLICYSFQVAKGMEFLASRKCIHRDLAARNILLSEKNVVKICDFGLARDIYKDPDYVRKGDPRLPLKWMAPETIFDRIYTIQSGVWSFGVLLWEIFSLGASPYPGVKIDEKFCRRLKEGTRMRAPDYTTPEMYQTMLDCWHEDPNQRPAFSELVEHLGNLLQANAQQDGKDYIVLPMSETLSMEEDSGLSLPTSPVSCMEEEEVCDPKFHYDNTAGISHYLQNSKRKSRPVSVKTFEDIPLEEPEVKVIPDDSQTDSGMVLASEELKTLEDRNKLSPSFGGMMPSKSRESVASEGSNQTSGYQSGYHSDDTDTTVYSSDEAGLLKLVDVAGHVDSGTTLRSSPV
property-label: IC50 (nM)

O=C(c1cccc2[nH]c(-c3n[nH]c4ncc(-c5cncc6ccccc56)cc34)nc12)N1CCCC1    2790
COc1ccc2nc(-c3n[nH]c4ncc(-c5cccnc5)cc34)[nH]c2c1    316
CCN(CC)Cc1cccc2[nH]c(-c3n[nH]c4ncc(-c5cccnc5)cc34)nc12    1030

(I) COCc1cccc2[nH]c(-c3n[nH]c4ncc(Br)cc34)nc12
(II) COCc1cccc2[nH]c(-c3n[nH]c4ncc(-c5cncc6ccccc56)cc34)nc12
Given the listed records, identify the one among I and II with higher IC50. Mark your answer with the label of the selected entry.
I

(I) COCc1cccc2[nH]c(-c3n[nH]c4ncc(-c5ccncc5)cc34)nc12
(II) CN1CCN(c2ccc3[nH]c(-c4n[nH]c5ncc(-c6cccnc6)cc45)nc3c2)CC1
Returns: the argument ( I or II ) having the larger IC50. Return value: the label identifying the chosen record.
I
(I: 115 nM, II: 47.5 nM)

###

Here's what we have: pIC50 numbers for UniProt:P12931.
pIC50: −log10 of the molar value.
property-label: pIC50

Cc1ccccc1NC(=O)c1cccc2[nH]c(-c3n[nH]c4ncc(-c5cncc6ccccc56)cc34)nc12    8.85
COCc1cccc2[nH]c(-c3n[nH]c4ncc(-c5ccc(F)nc5)cc34)nc12    6.56
Fc1ccc2nc(-c3n[nH]c4ncc(-c5cccnc5)cc34)[nH]c2c1    7.01
CC(C)NCc1cncc(-c2cnc3[nH]nc(-c4nc5cc(N6CCN(C)CC6)ccc5[nH]4)c3c2)c1    8.18

(P) CCNCc1cncc(-c2cnc3[nH]nc(-c4nc5cc(OC)ccc5[nH]4)c3c2)c1
(Q) NC1CCC(NC(=O)c2cccc3[nH]c(-c4n[nH]c5ncc(-c6cncc7ccccc67)cc45)nc23)CC1 (centres unmarked)
(R) COCc1cccc2[nH]c(-c3n[nH]c4ncc(-c5cncc(CNC(C)C)c5)cc34)nc12
(S) O=C(Nc1cccnc1)c1cccc2[nH]c(-c3n[nH]c4ncc(-c5cncc6ccccc56)cc34)nc12
I would appreciate it if you could sort these 4 molecules by pIC50, starting from the smallest number. In your reply, arrange the labels in the requested order.
R, P, S, Q

###

# VEGF-R2 (Rattus norvegicus): pIC50 values follow;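 also: Read-out is ³³P incorporation from ³³P-γ-ATP into biotinylated peptide substrate captured on streptavidin FlashPlate, counted by scintillation, 1% DMSO final, inhibition scaled between per-plate maximum and minimum signals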
Conceptually, pIC50 converts a concentration in mol/L into minus its log10.

COCc1cccc2[nH]c(-c3n[nH]c4ncc(-c5cncc(CN6CCOCC6)c5C)cc34)nc12    5.52

Could you please provide reported pIC50 for CNCc1cncc(-c2cnc3[nH]nc(-c4nc5cc(N6CCN(C)CC6)ccc5[nH]4)c3c2)c1 ? Thanks!
7.45

###

Parameter 'readout' = pIC50; parameter 'system' = c-Src kinase (Homo sapiens).
Sequence (P12931 whole entry): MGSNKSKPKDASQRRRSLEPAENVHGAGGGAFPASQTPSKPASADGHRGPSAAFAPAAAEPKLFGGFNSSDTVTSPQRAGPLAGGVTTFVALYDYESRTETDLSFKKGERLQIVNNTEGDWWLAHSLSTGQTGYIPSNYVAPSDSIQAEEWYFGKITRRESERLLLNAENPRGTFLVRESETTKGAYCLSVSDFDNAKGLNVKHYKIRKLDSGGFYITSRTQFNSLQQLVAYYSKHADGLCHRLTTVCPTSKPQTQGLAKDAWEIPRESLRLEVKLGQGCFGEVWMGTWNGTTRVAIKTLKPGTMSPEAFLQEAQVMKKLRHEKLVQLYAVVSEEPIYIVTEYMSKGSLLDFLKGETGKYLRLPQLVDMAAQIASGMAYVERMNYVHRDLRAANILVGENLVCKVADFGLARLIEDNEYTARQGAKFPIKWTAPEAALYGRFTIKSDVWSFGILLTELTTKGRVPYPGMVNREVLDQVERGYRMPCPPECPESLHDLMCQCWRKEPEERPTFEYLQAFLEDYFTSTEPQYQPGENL
pIC50: −log10 of the molar value.
property-label: pIC50

Examples with their reported pIC50 follow.
OCCOc1ccc2[nH]c(-c3n[nH]c4ncc(-c5cccnc5)cc34)nc2c1    7.13
COCc1cccc2[nH]c(-c3nn(C)c4ncc(-c5cncc6ccccc56)cc34)nc12    5.93
CN1CCN(c2ccc3[nH]c(-c4n[nH]c5ncc(-c6cncc7ccccc67)cc45)nc3c2)CC1    8.38
COc1ccc2[nH]c(-c3n[nH]c4ncc(-c5cncc(CNC(C)C)c5)cc34)nc2c1    7.93
COCc1cccc2[nH]c(-c3n[nH]c4ncc(-c5cncc(CNC(C)C)c5C)cc34)nc12    6.19
COCCNCc1cncc(-c2cnc3[nH]nc(-c4nc5c(COC)cccc5[nH]4)c3c2)c1    6.42

(a) CNCc1cncc(-c2cnc3[nH]nc(-c4nc5cc(OC(F)(F)F)ccc5[nH]4)c3c2)c1
(b) CCN(CC)Cc1cccc2[nH]c(-c3n[nH]c4ncc(-c5cccnc5)cc34)nc12
pIC50 comparison. Which is larger, a or b ? Provide the label of your selected option as the answer.
a
(a: 7.51, b: 6.24)

###

// endpoint IC50 / system CDK1 (Homo sapiens, UniProt P06493)
property-label: IC50 (nM)

OCCOc1ccc2[nH]c(-c3n[nH]c4ncc(-c5cccnc5)cc34)nc2c1    3.4
c1cncc(-c2cnc3[nH]nc(-c4nc5cc6c(cc5[nH]4)OCO6)c3c2)c1    3.3
O=C(NC1CC1)c1cccc2[nH]c(-c3n[nH]c4ncc(-c5cncc6ccccc56)cc34)nc12    1.59
COCc1cccc2[nH]c(-c3n[nH]c4ncc(-c5c[nH]c6ccccc56)cc34)nc12    1210
CCCNCc1cncc(-c2cnc3[nH]nc(-c4nc5cc(OC)ccc5[nH]4)c3c2)c1    0.4
CNCc1cncc(-c2cnc3[nH]nc(-c4nc5ccc(C#N)cc5[nH]4)c3c2)c1    1.7
CN1CCN(C(=O)c2cccc3[nH]c(-c4n[nH]c5ncc(-c6cncc7ccccc67)cc45)nc23)CC1    1630
CNCc1cncc(-c2cnc3[nH]nc(-c4nc5ccc(OC)cc5[nH]4)c3c2)c1    0.9
OCc1cccc2[nH]c(-c3n[nH]c4ncc(-c5cncc6ccccc56)cc34)nc12    41.2
CCNCc1cncc(-c2cnc3[nH]nc(-c4nc5cc(F)c(F)cc5[nH]4)c3c2)c1    1.1

(1) COCc1cccc2[nH]c(-c3n[nH]c4ncc(Br)cc34)nc12
(2) CCN1CCN(Cc2cccc3[nH]c(-c4n[nH]c5ncc(-c6cncc7ccccc67)cc45)nc23)CC1
# compare IC50 for 1 vs 2 ; return the one with the smaller value Write the label of whichever entry you select.
2
(2: 15.9 nM, 1: 358 nM)

(1) COCc1cccc2[nH]c(-c3n[nH]c4ncc(-c5cncc(CNC(C)C)c5C)cc34)nc12
(2) COCc1cccc2[nH]c(-c3n[nH]c4ncc(-c5ccc(S(N)(=O)=O)cc5)cc34)nc12
Endpoint returns the identifier whose IC50 is numerically larger, either 1 or 2 . Output the label that corresponds to your choice.
2
(2: 546 nM, 1: 339 nM)

###

Attribute: Tumor volume
Test system: Human melanoma A375 cells
Assay: In Vivo Models - Inhibition of Tumor Growth (A375 xenograft)
Details: female athymic mice, 25 mg/kg i.p. daily, Day 14
Procedure: The ability of test compounds to inhibit unregulated growth of human tumor cells in vivo was evaluated by implanting human tumor cells into the hindflank of athymic mice, administering a test compound and then quantifying any change in tumor size. Certain compounds at particular doses produced adverse effects in this model. One skilled in the art would be able to establish the effective amount of compound required to achieve an effective therapeutic window. […]
The figure you give is taken to be in mm^3; do not add the unit.

CCNCc1cncc(-c2cnc3[nH]nc(-c4nc5ccc(F)cc5[nH]4)c3c2)c1    896.8
CCNCc1cncc(-c2cnc3[nH]nc(-c4nc5cc(OC)ccc5[nH]4)c3c2)c1    988.7

For the compound CCNCc1cncc(-c2cnc3[nH]nc(-c4nc5cc(N6CCN(C)CC6)ccc5[nH]4)c3c2)c1 , give its measured Tumor volume value.
1323.6

Tell me measured Tumor volume for CCCNCc1cncc(-c2cnc3[nH]nc(-c4nc5c(COC)cccc5[nH]4)c3c2)c1 please.
856.9

###

Target or system CDK1 (Homo sapiens); recorded quantity IC50.
property-label: IC50 (nM)

See these solved cases before continuing.
CC(C)(C)NC(=O)c1cccc2[nH]c(-c3n[nH]c4ncc(-c5cncc6ccccc56)cc34)nc12    28.6
COCCNCc1cncc(-c2cnc3[nH]nc(-c4nc5c(COC)cccc5[nH]4)c3c2)c1    63.6
COCc1cccc2[nH]c(-c3n[nH]c4ncc(-c5cncc(CNC(C)(C)C)c5)cc34)nc12    104
CN1CCN(c2ccc3[nH]c(-c4n[nH]c5ncc(-c6cncc(CN7CCCC7)c6)cc45)nc3c2)CC1    29.3

(I) CCNCc1cncc(-c2cnc3[nH]nc(-c4nc5c(COC)cccc5[nH]4)c3c2)c1C
(II) c1ccc2c(-c3cnc4[nH]nc(-c5nc6c(CN7CCOCC7)cccc6[nH]5)c4c3)cncc2c1
(III) COCc1cccc2[nH]c(-c3n[nH]c4ncc(-c5cc[nH]c5)cc34)nc12
Rank the items in ascending order with respect to IC50. Would you mind listing the labels in the order asked for?
II, I, III
(II: 8.45 nM, I: 106 nM, III: 1190 nM)
